- target-desc: T1, polypeptide GC3pep (human)
- T1 construct: also called membrane proximal polypeptide GC3pep
- T1 peptide: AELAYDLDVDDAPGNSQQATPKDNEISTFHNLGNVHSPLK
- protocol-details: ELISA, GC3pep coated, antibody 1 nM;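 further: bound antibody detected with an HRP-conjugated secondary antibody and TMB substrate, reaction stopped with HCl, after 2 h binding at 37 °C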
property-name: OD450 nm (OD450 nm)
Could you give me the number in OD450 nm? Just the number is fine.

{"binder": "F1.41.17 (antibody, human IgG1, kappa, V domains shown, human-murine chimeric antibody) VH: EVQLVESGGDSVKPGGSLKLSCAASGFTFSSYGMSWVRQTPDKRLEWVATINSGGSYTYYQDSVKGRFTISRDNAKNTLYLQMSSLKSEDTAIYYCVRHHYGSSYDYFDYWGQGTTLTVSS VL: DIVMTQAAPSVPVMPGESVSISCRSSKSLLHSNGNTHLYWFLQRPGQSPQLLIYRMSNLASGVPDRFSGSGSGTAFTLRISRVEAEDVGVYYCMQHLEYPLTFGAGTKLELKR", "OD450 nm [OD450 nm]": 0.05}

API: the following record is the query input.
// F1.83.6 (antibody, human IgG1, kappa, V domains shown, human-murine chimeric antibody) VH: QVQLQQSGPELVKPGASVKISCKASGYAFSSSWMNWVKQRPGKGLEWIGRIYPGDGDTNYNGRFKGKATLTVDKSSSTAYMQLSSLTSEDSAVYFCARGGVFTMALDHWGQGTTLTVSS VL: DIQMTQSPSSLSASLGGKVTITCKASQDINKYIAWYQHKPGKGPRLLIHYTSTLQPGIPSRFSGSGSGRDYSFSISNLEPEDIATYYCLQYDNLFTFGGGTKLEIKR : OD450 nm value = 0.05
